- Tested on: HOP-92
- assay_info: NCI tumour cell line growth inhibition, 48 h
The source made the active and inactive calls. Rule as the data show it: active = GI50 up to about 1.1 µM and inactive = higher.
recorded_endpoint: GI50

# count of solved cases: 8
| compound | GI50 |
| --- | --- |
| COc1c2ccoc2c(S(=O)(=O)Nc2ccc(Cl)cc2)c2oc(C)cc(=O)c12 | 41.9 µM (inactive) |
| CC(NC(=O)N(C)C)NC(=O)N(C)C | > 10 µM (inactive) |
| O=C(O/N=C1\CCCC\C1=C/c1ccccc1)c1ccc([N+](=O)[O-])cc1 | > 100 µM (inactive) |
| COC(=O)C(CCc1ccccc1I)C1=CCC2(CC1)OCCO2 (configuration not stated) | 30.4 µM (inactive) |
| O=C(Cc1nc2ncccc2[nH]c1=O)c1c[nH]c2ccccc12 | 17.7 µM (inactive) |
| O=c1oc2cc(/N=C/c3ccccc3Cl)ccc2c2ccccc12 | > 100 µM (inactive) |
| Cc1cc(C)c(S(=O)(=O)N(CCCN)OCCCON(CCCN)S(=O)(=O)c2c(C)cc(C)cc2C)c(C)c1 | 1.98 µM (inactive) |
| CC(C)NC(NC(C)C)=C(S(=O)(=O)C(F)(F)C(F)(F)C(F)(F)C(F)(F)F)S(=O)(=O)C(F)(F)C(F)(F)C(F)(F)C(F)(F)F | > 100 µM (inactive) |

Record GI50 for all entries; do not skip any.
1. Cc1oc(N)c(S(=O)(=O)/C(C#N)=C/c2ccccc2[N+](=O)[O-])c1C
2. O=c1sc2c(s1)SSSSS2
3. COc1ccc(C(=O)/C=C/c2cc(O)c(O)c(F)c2F)c(OC)c1
4. CCCc1cc(=O)oc2c(C=O)c(O)cc(O)c12

1: 34.7 µM (inactive); 2: > 50 µM (inactive); 3: 46.7 µM (inactive); 4: 18.7 µM (inactive)

Please state, for each entry, its recorded GI50.
1. CC(=O)N(C)OC(=O)CC(=O)c1ccccc1
2. COc1ccc2c(c1)CCN1CCCc3ccccc3C21 (configuration not stated)
3. Cc1cn(C2CC(N=[N+]=[N-])C(CO)O2)c(=O)n(CCCCBr)c1=O (configuration not stated)
4. O=C(CNc1ccc(Cl)cc1Cl)Nn1c(-c2ccccc2)nc2ccccc2c1=O

> 100 µM (inactive)
46.2 µM (inactive)
> 100 µM (inactive)
4.33 µM (inactive)

====

- System: A498
- assay_info: NCI tumour cell line growth inhibition, 48 h
The source made the active and inactive calls. Cut-off read from the data, not from the text of the source: active = GI50 up to about 1.1 µM and inactive = higher.
recorded_endpoint: GI50

| molecule | GI50 |
| --- | --- |
| CCOC(=O)C(C)OC(=O)c1ccc(C)cc1 (stereo not given) | > 100 µM (inactive) |
| CC(=O)Oc1c(OC(C)=O)c(-c2ccc(O)c(O)c2)c(O)c(O)c1-c1ccc(O)cc1 | > 100 µM (inactive) |
| C/C=N\n1c(C)c(C#N)c(C#N)c1N | > 100 µM (inactive) |
| COC(=O)/C=C\C1C(C(=O)OC)C2(C(=O)OC)CCC1(C(=O)OC)N2 (stereo not given) | 18.1 µM (inactive) |
| COC(=O)[C@]1(CCC(C)=O)C(=O)C=CN([C@H](C)c2ccccc2)[C@@H]1Cc1ccc(OC)c(OCc2ccccc2)c1I | 22.5 µM (inactive) |

Report GI50 for every entry below.
1. NC(=O)c1cccc(C2OC(COP(=O)(O)O)C(O)C2O)c1 (stereo not given)
2. Oc1ccc(Cc2cc(Cl)cc(Cl)c2O)cc1Cl
3. COc1cc(C2c3cc4c(cc3OC(N3CCOCC3)C2C)OCO4)cc(OC)c1OC(C)=O (stereo not given)
4. Nc1nc(N)c2ncn(-c3ccc(Br)cc3)c2n1
5. Cc1cn(C2CC(N=[N+]=[N-])C(CO)O2)c(=O)n(CCCCBr)c1=O (stereo not given)

["> 50 µM (inactive)", "19.5 µM (inactive)", "27.8 µM (inactive)", "15.6 µM (inactive)", "> 100 µM (inactive)"]
